The entries below come with measured Ki values attached.
target under test: cloned human dopamine D3 receptors (Homo sapiens)
Construct: expressed in transfected cells; membrane homogenate
method summary: [N-Methyl-3H]Spiroperidol binding to cloned human dopamine D3 receptors (Protocol 1)
test settings: the 21st table; read-out: D3 Ki
Text: [N-Methyl-^3H]Spiroperidol Binding to Cloned Human Dopamine D3 Receptors This assay measures the in vitro activity of compounds on cloned human dopamine (D3) receptors and predicts the direct dopamine-blocking properties of putative neuropsychiatric agents at human dopamine D3 receptors. The D3 gene was isolated from a human striatal cDNA library (Stratagene). The gene was sequenced and sub-cloned into the expression vector RC/RSV (Invitrogen). […]
Return type: number; implicit unit nM.

Guide cases for Ki, answers given:
C[C@@H]1CN(c2csc3cc(C(F)(F)F)ccc23)C[C@H](C)N1CCCCNC(=O)c1c[nH]c2ccccc12 ... 164
C[C@@H]1CN(c2csc3cc(F)ccc23)C[C@H](C)N1CCCCNC(=O)c1cccc(C(F)(F)F)c1 ... 153
COc1cccc(C(=O)NCCCCN2[C@H](C)CN(c3csc4cc(F)ccc34)C[C@@H]2C)c1 ... 57.4
C[C@@H]1CN(c2csc3cc(F)ccc23)C[C@H](C)N1CCCCNC(=O)c1ccc2cc[nH]c2c1 ... 25.6
COc1cccc(C(=O)NCCCCN2[C@H](C)CN(c3csc4cc(C(F)(F)F)ccc34)C[C@@H]2C)c1 ... 384

Query: Enter recorded Ki with cloned human dopamine D3 receptors (Homo sapiens) for C[C@@H]1CN(c2csc3cc(F)ccc23)C[C@H](C)N1CCCCNC(=O)c1ccc(F)cc1 here.
Response: 19

Query: Enter recorded Ki with cloned human dopamine D3 receptors (Homo sapiens) for C[C@@H]1CN(c2csc3cc(F)ccc23)C[C@H](C)N1CCCCNC(=O)c1n[nH]c2ccccc12 here.
Response: 77.1

Query: Enter recorded Ki with cloned human dopamine D3 receptors (Homo sapiens) for C[C@@H]1CN(c2csc3cc(C(F)(F)F)ccc23)C[C@H](C)N1CCCCNC(=O)c1ccc(-c2ccccc2)cc1 here.
Response: 276

Query: Enter recorded Ki with cloned human dopamine D3 receptors (Homo sapiens) for C[C@@H]1CN(c2csc3cc(C(F)(F)F)ccc23)C[C@H](C)N1CCCCNC(=O)c1ccc(C(F)(F)F)cc1 here.
Response: 96.1

Query: Enter recorded Ki with cloned human dopamine D3 receptors (Homo sapiens) for C[C@@H]1CN(c2csc3cc(F)ccc23)C[C@H](C)N1CCCCNC(=O)c1ccc(C(F)(F)F)cc1 here.
Response: 35.9

Query: Enter recorded Ki with cloned human dopamine D3 receptors (Homo sapiens) for C[C@@H]1CN(c2csc3cc(F)ccc23)C[C@H](C)N1CCCCNC(=O)c1ccc(C(C)(C)C)cc1 here.
Response: 128

Query: Enter recorded Ki with cloned human dopamine D3 receptors (Homo sapiens) for C[C@@H]1CN(c2csc3cc(C(F)(F)F)ccc23)C[C@H](C)N1CCCCNC(=O)c1ccc(OC(F)(F)F)cc1 here.
Response: 165

Query: Enter recorded Ki with cloned human dopamine D3 receptors (Homo sapiens) for COc1cc(OC)cc(C(=O)NCCCCN2[C@H](C)CN(c3csc4cc(C(F)(F)F)ccc34)C[C@@H]2C)c1 here.
Response: 378

---

target under test: cloned human dopamine D3 receptors (Homo sapiens)
Construct: expressed in transfected cells; membrane homogenate
method summary: [N-Methyl-3H]Spiroperidol binding to cloned human dopamine D3 receptors (Protocol 1)
test settings: read-out: D3K1
Description: [N-Methyl-^3H]Spiroperidol Binding to Cloned Human Dopamine D3 Receptors This assay measures the in vitro activity of compounds on cloned human dopamine (D3) receptors and predicts the direct dopamine-blocking properties of putative neuropsychiatric agents at human dopamine D3 receptors. The D3 gene was isolated from a human striatal cDNA library (Stratagene). The gene was sequenced and sub-cloned into the expression vector RC/RSV (Invitrogen). […]
value type: Ki (nM)
Return type: number; implicit unit nM.

Guide cases for Ki, answers given:
O=C(NC/C=C/CN1CCN(c2csc3cc(C(F)(F)F)ccc23)CC1)C1CCC1 ... 230
N#Cc1cccc(C(=O)NC/C=C/CN2CCN(c3csc4cc(C(F)(F)F)ccc34)CC2)c1 ... 91
O=C(NC/C=C/CN1CCN(c2csc3cc(C(F)(F)F)ccc23)CC1)c1ccc(OC(F)(F)F)cc1 ... 92

Query: Enter recorded Ki with cloned human dopamine D3 receptors (Homo sapiens) for CSc1ncccc1C(=O)N[C@@H](CO)CCCN1CCN(c2csc3cc(C(F)(F)F)ccc23)CC1 here.
Response: 261

Query: Enter recorded Ki with cloned human dopamine D3 receptors (Homo sapiens) for O=C(NC/C=C/CN1CCN(c2csc3cc(C(F)(F)F)ccc23)CC1)C1CCCC1 here.
Response: 66

Query: Enter recorded Ki with cloned human dopamine D3 receptors (Homo sapiens) for O=C(NC/C=C\CN1CCN(c2csc3cc(C(F)(F)F)ccc23)CC1)c1ccccc1 here.
Response: 29

---

target under test: cloned human dopamine D3 receptors (Homo sapiens)
Construct: expressed in transfected cells; membrane homogenate
method summary: [N-Methyl-3H]Spiroperidol binding to cloned human dopamine D3 receptors (Protocol 1)
test settings: the 21st table; read-out: D3 Ki
Ki under 40 nM gets 1, anything at or over 40 nM gets 0.

C[C@@H]1CN(c2csc3cc(C(F)(F)F)ccc23)C[C@H](C)N1CCCCNC(=O)c1cccc(F)c1 ... 0

Query: Consider the compound C[C@@H]1CN(c2csc3cc(F)ccc23)C[C@H](C)N1CCCCNC(=O)c1cccc2[nH]ccc12 . Is its Ki strictly less than 40 nM?
Response: 0

Query: Consider the compound C[C@@H]1CN(c2csc3cc(F)ccc23)C[C@H](C)N1CCCCNC(=O)c1ccc2[nH]ccc2c1 . Is its Ki strictly less than 40 nM?
Response: 1

Query: Consider the compound C[C@@H]1CN(c2csc3cc(F)ccc23)C[C@H](C)N1CCCCNC(=O)c1ccc2ccccc2c1 . Is its Ki strictly less than 40 nM?
Response: 1

Query: Consider the compound CC1=C(C(=O)NCCCCN2[C@H](C)CN(c3csc4cc(F)ccc34)C[C@@H]2C)Cc2ccccc21 . Is its Ki strictly less than 40 nM?
Response: 0

Query: Consider the compound C[C@@H]1CN(c2csc3cc(C(F)(F)F)ccc23)C[C@H](C)N1CCCCNC(=O)c1cc2ccccc2o1 . Is its Ki strictly less than 40 nM?
Response: 0

---

target under test: cloned human dopamine D3 receptors (Homo sapiens, UniProt P35462)
Construct: expressed in transfected cells; membrane homogenate
Sequence (P35462 whole entry): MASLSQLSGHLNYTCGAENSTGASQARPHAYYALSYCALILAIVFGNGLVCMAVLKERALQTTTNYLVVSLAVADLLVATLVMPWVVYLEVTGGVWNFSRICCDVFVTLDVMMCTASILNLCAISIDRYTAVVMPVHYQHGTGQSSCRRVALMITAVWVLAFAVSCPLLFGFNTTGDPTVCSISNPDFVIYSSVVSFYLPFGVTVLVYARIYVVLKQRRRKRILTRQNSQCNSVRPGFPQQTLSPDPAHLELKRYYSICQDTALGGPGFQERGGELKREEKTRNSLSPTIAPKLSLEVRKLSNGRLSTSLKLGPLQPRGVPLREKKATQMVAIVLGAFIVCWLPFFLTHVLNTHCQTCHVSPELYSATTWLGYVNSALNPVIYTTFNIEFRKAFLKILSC
method summary: [N-Methyl-3H]Spiroperidol binding to cloned human dopamine D3 receptors (Protocol 1)
test settings: the 23rd table; read-out: D3 Ki
value type: pKi
API: returns pKi as number; meaning -log10 of concentration in mol/L.

Guide cases for pKi, answers given:
FC(F)(F)c1ccc2c(N3CCN(C[C@@H]4C[C@H]4CNC4CCN(CC5CC5)CC4)CC3)csc2c1 ... 7.44
FC(F)(F)c1ccc2c(N3CCN(C[C@@H]4C[C@H]4CNCCc4ccccc4)CC3)csc2c1 ... 6.64

Query: Enter recorded pKi with cloned human dopamine D3 receptors (Homo sapiens, UniProt P35462) for c1cc2onc(C3CCN(CC4CC4CN4CCC(c5noc6ccsc56)CC4)CC3)c2s1 (racemic) [831205DA] here.
Response: 8.20

Query: Enter recorded pKi with cloned human dopamine D3 receptors (Homo sapiens, UniProt P35462) for CC(C)CCNC[C@@H]1C[C@H]1CN1CCN(c2csc3cc(C(F)(F)F)ccc23)CC1 here.
Response: 7.52

---

target under test: cloned human dopamine D3 receptors (Homo sapiens, UniProt P35462)
Construct: expressed in transfected cells; membrane homogenate
method summary: [N-Methyl-3H]Spiroperidol binding to cloned human dopamine D3 receptors (Protocol 1)
test settings: the 14th table; read-out: D3 Ki
Text: [N-Methyl-^3H]Spiroperidol Binding to Cloned Human Dopamine D3 Receptors This assay measures the in vitro activity of compounds on cloned human dopamine (D3) receptors and predicts the direct dopamine-blocking properties of putative neuropsychiatric agents at human dopamine D3 receptors. The D3 gene was isolated from a human striatal cDNA library (Stratagene). The gene was sequenced and sub-cloned into the expression vector RC/RSV (Invitrogen). […]
value type: pKi
API: returns pKi as number; meaning -log10 of concentration in mol/L.

Guide cases for pKi, answers given:
CC1=C(C(=O)NCCCCCN2CCN(c3csc4cc(F)ccc34)CC2)Cc2ccccc21 [compound 826792] ... 8.41
O=C(NCCCCCCN1CCN(c2csc3cc(C(F)(F)F)ccc23)CC1)c1cccs1 [compound 826746] ... 9.10
Cc1ccccc1C(=O)NCCCCCN1CCN(c2csc3cc(F)ccc23)CC1 [compound 826781] ... 8.00
CC1=C(C(=O)NCCCCCN2CCN(c3csc4cc(C(F)(F)F)ccc34)CC2)Cc2ccccc21 [compound 826802] ... 7.77

Query: Check the records and state pKi for O=C(NCCCCCN1CCN(c2csc3cc(C(F)(F)F)ccc23)CC1)c1n[nH]c2ccccc12 [compound 826801]
Response: 7.30

Query: Check the records and state pKi for O=C(NCCCCCN1CCN(c2csc3cc(F)ccc23)CC1)c1cccc(C(F)(F)F)c1 [compound 826780]
Response: 8.35

Query: Check the records and state pKi for O=C(N[C@@H](CO)CCCN1CCN(c2csc3cc(C(F)(F)F)ccc23)CC1)c1cc2ccccc2[nH]1 [compound 815674]
Response: 6.50

Query: Check the records and state pKi for O=C(NCCCCCCN1CCN(c2csc3cc(C(F)(F)F)ccc23)CC1)c1cccc(Cl)c1 [compound 826747]
Response: 9.92

Query: Check the records and state pKi for COc1ccc(C(=O)N[C@H](CO)CCCN2CCN(c3csc4cc(C(F)(F)F)ccc34)CC2)cc1 [compound 815692]
Response: 6.72

Query: Check the records and state pKi for COc1ccc2[nH]c(C(=O)NCCCCCN3CCN(c4csc5cc(F)ccc45)CC3)cc2c1 [compound 826785]
Response: 8.84

Query: Check the records and state pKi for O=C(N[C@H](CO)CCCN1CCN(c2csc3cc(C(F)(F)F)ccc23)CC1)c1ccc2ccccc2c1 [compound 815697]
Response: 6.53
